system_tested: UniProt P00734
readout_name: IC50

molecule	system_tested	IC50
COc1ccccc1C(=O)n1nc(C2CCCCC2OC)nc1NCc1ccc(Cl)s1 (stereo not drawn) [Entry 39]	UniProt P00734	≤ 100 nM
COc1ccc(C(=O)n2nc(C3CCOCC3)nc2NCc2ccc(Cl)s2)c(OC)c1 [Entry 36]	UniProt P00734	≤ 100 nM
COc1ccccc1C(=O)n1nc(C2CCOC2)nc1NCc1ccc(Cl)s1 (stereo not drawn) [Entry 42]	UniProt P00734	≤ 100 nM
COc1ccccc1C(=O)n1nc(C2CCN(S(=O)(=O)C(C)C)CC2)nc1NCc1ccc(Cl)s1 [Entry 47]	UniProt P00734	≤ 100 nM
O=C(c1ccoc1)n1nc(C2CCOC2)nc1NCc1ccc(Cl)s1 (stereo not drawn) [Entry 53]	UniProt P00734	≤ 100 nM

### Prompt Query for UniProt P00734: what IC50 does the record show for COc1ccccc1C(=O)n1nc(C2CN(S(=O)(=O)N3CCCC3)C2)nc1NCc1ccc(Cl)s1 [Entry 49] ?
### Response ≤ 100 nM

### Prompt Lab note: need IC50 for O=C(C1CCCC1)n1nc(C2CNC2)nc1NCc1ccc(Cl)s1 [Entry 23] on UniProt P00734, anyone have it?
### Response ≥ 100000 nM

### Prompt Record COc1ccccc1C(=O)n1nc(C2CCNCC2)nc1NCc1ccc(Cl)s1 [Entry 43] : what is its IC50 with UniProt P00734?
### Response ≤ 100 nM

### Prompt GET /values?readout=IC50&system=UniProt P00734&item= COc1ccccc1C(=O)n1nc(C2CCOCC2)nc1NCc1ccccc1 [Entry 65]
### Response 1000 to 10000 nM

### Prompt UniProt P00734 / IC50 / COc1ccccc1C(=O)n1nc(C2CCN(C(N)=O)CC2)nc1NCc1ccc(Cl)s1 [Entry 31] : value?
### Response ≤ 100 nM

### Prompt Could you share what IC50 was measured for CC(C)(C)OC(=O)N1CC(c2n[nH]c(NCc3ccc(Cl)s3)n2)C1 [Entry 72] , tested on UniProt P00734?
### Response ≥ 100000 nM
